biological target: UniProt:O60885; test: BROMOscan ligand-binding assay; conditions: BROMOscan Gene Symbol BRD4(1)
pKd: −log10 of the molar value.

MOLECULE_SMILES	pKd
Cc1noc(C)c1-c1ccc2c(c1)nc(CCc1ccccc1)n2CCN1CCOCC1	6.28

* * *

target: CECR2 (Homo sapiens, UniProt Q9BXF3); assay: BROMOscan ligand-binding assay
Sequence (Q9BXF3 434-538 limits assumed): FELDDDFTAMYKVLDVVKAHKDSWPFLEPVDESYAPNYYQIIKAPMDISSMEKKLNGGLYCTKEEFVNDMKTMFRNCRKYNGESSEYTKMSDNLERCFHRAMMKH

MOLECULE_SMILES	Kd / nM
CCCS(=O)(=O)c1nc(NC2CC2)cc(-c2ccc3c(ccn3C3CC(C)(C)NC(C)(C)C3)c2)n1	14

* * *

target: BRDT(1) (Homo sapiens, UniProt Q58F21); assay: BROMOscan ligand-binding assay
pKd: −log10 of the molar value.

MOLECULE_SMILES	pKd
CCCS(=O)(=O)c1nc(NC2CC2)cc(-c2ccc3c(ccn3C3CC(C)(C)NC(C)(C)C3)c2)n1	< 4.52

* * *

target: UniProt Q9H0E9; test: BROMOscan ligand-binding assay; settings: KD, BROMOscan, BRD8(1)
REPORTED_ENDPOINT: Kd

COMPOUND	REPORTED_ENDPOINT	VAL
COc1ccc(CCc2nc3cc(-c4c(C)noc4C)ccc3n2C[C@H](C)N2CCOCC2)cc1Cl [SGC-CBP30]	Kd	> 100 µM

* * *

biological target: BRD8(2) (Homo sapiens); experiment: BROMOscan ligand-binding assay; settings: BRD8(2)
Sequence (Q9H0E9 1099-1207 limits assumed): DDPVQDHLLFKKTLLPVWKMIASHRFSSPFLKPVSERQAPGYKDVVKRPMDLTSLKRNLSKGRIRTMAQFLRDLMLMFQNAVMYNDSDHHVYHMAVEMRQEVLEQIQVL
pKd: −log10 of the molar value.

COMPOUND	pKd
COc1cc(C#N)ccc1S(=O)(=O)Nc1ccc2c(c1)cc(C)c(=O)n2C [NI 57]	< 4.30
COc1cc2c(cc1NS(=O)(=O)c1ccc(Br)cc1C)n(C)c(=O)n2C [OF-1]	< 4.30

* * *

target: FALZ (Homo sapiens, UniProt Q12830); experiment: BROMOscan ligand-binding assay; settings: read-out: KD (BROMOscan); sheet prints no unit (nM)
We begin with a simple list: items and their reported Kd.

MOLECULE	TARGET_SYSTEM	Kd
COc1ccc(CCc2nc3cc(-c4c(C)noc4C)ccc3n2CCN2CCOCC2)cc1 [CBP30-383]	FALZ (Homo sapiens, UniProt Q12830)	> 30000 nM
Cc1noc(C)c1-c1ccc2c(c1)nc(CCc1ccccc1)n2CCN1CCOCC1 [CBP30-298]	FALZ (Homo sapiens, UniProt Q12830)	> 30000 nM

* * *

Item-by-item account of Kd
biological target: BRDT(1,2) (Homo sapiens); assay: BROMOscan ligand-binding assay; conditions: BRDT(1,2)
REPORTED_ENDPOINT: Kd (µM)

MOLECULE_SMILES	REPORTED_ENDPOINT	CMP	VAL
COc1cc2c(cc1NS(=O)(=O)c1ccc(Br)cc1C)n(C)c(=O)n2C	Kd	=	11
COc1cc(C#N)ccc1S(=O)(=O)Nc1ccc2c(c1)cc(C)c(=O)n2C	Kd	>	50

* * *

Below, each entry is listed with its recorded pKd.
molecular target: BRD2(1) (Homo sapiens); assay: BROMOscan ligand-binding assay; details: BRD2(1)
Sequence (P25440 74-180 limits assumed): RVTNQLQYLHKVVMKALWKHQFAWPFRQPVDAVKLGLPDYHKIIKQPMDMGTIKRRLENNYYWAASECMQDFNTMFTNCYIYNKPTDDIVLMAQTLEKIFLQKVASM
pKd: −log10 of the molar value.

MOLECULE_SMILES	CMP	pKd
Cc1cc(=O)n(C)c2cc(N3C(=O)CC[C@H](NS(=O)(=O)CC(C)C)[C@H]3c3ccc(Cl)cc3)ccc12	<	4.30
COc1cc2c(cc1NS(=O)(=O)c1ccc(Br)cc1C)n(C)c(=O)n2C	=	5.13
COc1cc(C#N)ccc1S(=O)(=O)Nc1ccc2c(c1)cc(C)c(=O)n2C	=	5.23
